- target system: T1, recombinant human CD300LB overexpressed on Jurkat cells (human, UniProt A8K4G0 18-201)
- T1 construct: also called huCD300LB; huCD300LB-expressing Jurkat cells
- T1 sequence: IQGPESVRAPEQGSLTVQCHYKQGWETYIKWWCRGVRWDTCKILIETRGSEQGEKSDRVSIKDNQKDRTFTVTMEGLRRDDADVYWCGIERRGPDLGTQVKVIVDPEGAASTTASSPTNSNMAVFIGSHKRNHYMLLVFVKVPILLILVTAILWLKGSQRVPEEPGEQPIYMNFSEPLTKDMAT
- experimental protocol: flow cytometry, stable Jurkat cells, supernatant or 10 ug/mL, isotype subtracted
We begin with a simple list: items and their reported gMFI.
property label: gMFI (gMFI)

* anti-CD300LB antibody CD-04 (antibody, V domains shown) VH: QVQLQQSGAELVRPGASVTLSCRASGYTFTDFEMHWVKQTPLHGLEWIGAIAPETGGTAYNQKFKGKAILTADKSSSTAYVELRSLTSEDSAVYFCTRLGGMDYWGQGTSVTVSS VL: DVVMTQTPLSLPVSLGDQASISCRSSQTLVHNNGNTYLYWYLQKPGQSPKLLIYQVSNRFFGVPDRFSGSGSGTDFTLKISRVEAEDLGLYFCSQSTHVPWTFGGGTKLEIK | 193
* anti-CD300LB antibody CD-06 (antibody, V domains shown) VH: QVQLVQSGAEVKKPGASVKVSCKASGYTFTTYAVHWVRQAPGQGLEWMGIVNPNSGGTNYAQKFQGRVTMTRDTSTSTVYMELSSLRSEDTAVYYCARDIVPMNNFYNYYYGMDVWGQGTTVTVSS VL: DIQMTQSPSSLSASVGDRVTITCRASQSISSYLNWYQQKPGKAPKLLIYATSTLQSGVPSRFSGSGSGTDFTLTISSLQPEDFATYYCQQSYRIPYTFGQGTKVEIK | 3180
